Origin of measurements: PubChem BioAssay (NCI)

test system: NCI/ADR-RES ovarian; assay: NCI tumour cell line growth inhibition, 48 h
quantity measured: TGI

[
  {
    "molecule": "NC(N)=NCC1CCCCCCN1 (centres undefined)",
    "quantity measured": "TGI",
    "observed result": "> 100 µM"
  },
  {
    "molecule": "O=c1[nH]nc(NCc2ccccc2)c2nnn(Cc3ccccc3)c12",
    "quantity measured": "TGI",
    "observed result": "> 100 µM"
  },
  {
    "molecule": "COc1cc(Oc2c(C)c(Cl)c(OC)c(Cl)c2OC)c2c(c1Cl)COC2=O",
    "quantity measured": "TGI",
    "observed result": "> 100 µM"
  },
  {
    "molecule": "CCCCCCCCCCCCCCCCCc1nccn1CCOCCO",
    "quantity measured": "TGI",
    "observed result": "37.5 µg/mL"
  },
  {
    "molecule": "CC(Oc1ccccc1Cl)C(=O)NN1C(=O)CC(=O)N(c2ccccc2)C1=S (centres undefined)",
    "quantity measured": "TGI",
    "observed result": "> 100 µM"
  },
  {
    "molecule": "Nc1c(C(=O)Nc2ccccc2)sc2nc3c(cc12)CCCCC3",
    "quantity measured": "TGI",
    "observed result": "> 100 µM"
  },
  {
    "molecule": "CCCCN1CCCC[C@@H]1C(=O)N[C@H](C(=O)N(C)[C@H](C[C@@H](OC(C)=O)c1nc(C(=O)NC2CCC(C(=O)OC)CC2)cs1)C(C)C)C(C)C (some centres undefined)",
    "quantity measured": "TGI",
    "observed result": "> 25 µM"
  },
  {
    "molecule": "CCc1c2c(cc3c1CC1(C3)Cc3cc4c(c(C(=O)OC)c3C1)CCCC4)CCCC2 (centres undefined)",
    "quantity measured": "TGI",
    "observed result": "> 100 µM"
  },
  {
    "molecule": "CCCCOC(=O)c1ccc(N)cc1",
    "quantity measured": "TGI",
    "observed result": "> 100 µM"
  }
]
